target: T1, PCSK9Δhelix (human, UniProt Q8NBP7 31-152; Q8NBP7 168-692); experiment: TR-FRET competition; competitor Ab20 binding to His-PCSK9Δhelix
T1 construct: Made by TEV cleavage of human PCSK9 M1-Q692 with an engineered TEV site; The new N-terminus of the catalytic domain is S-A168; also called His-PCSK9Δhelix; PCSK9 lacking the P' helix
T1 sequence (Q8NBP7 31-152, stated change not applied, chain 1 of 2): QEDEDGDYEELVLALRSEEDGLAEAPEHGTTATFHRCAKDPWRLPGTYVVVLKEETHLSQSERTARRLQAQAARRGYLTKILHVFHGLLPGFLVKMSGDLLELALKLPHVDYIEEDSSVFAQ
T1 sequence (Q8NBP7 other isoform, or with tags, fused parts or gaps mutant, chain 2 of 2): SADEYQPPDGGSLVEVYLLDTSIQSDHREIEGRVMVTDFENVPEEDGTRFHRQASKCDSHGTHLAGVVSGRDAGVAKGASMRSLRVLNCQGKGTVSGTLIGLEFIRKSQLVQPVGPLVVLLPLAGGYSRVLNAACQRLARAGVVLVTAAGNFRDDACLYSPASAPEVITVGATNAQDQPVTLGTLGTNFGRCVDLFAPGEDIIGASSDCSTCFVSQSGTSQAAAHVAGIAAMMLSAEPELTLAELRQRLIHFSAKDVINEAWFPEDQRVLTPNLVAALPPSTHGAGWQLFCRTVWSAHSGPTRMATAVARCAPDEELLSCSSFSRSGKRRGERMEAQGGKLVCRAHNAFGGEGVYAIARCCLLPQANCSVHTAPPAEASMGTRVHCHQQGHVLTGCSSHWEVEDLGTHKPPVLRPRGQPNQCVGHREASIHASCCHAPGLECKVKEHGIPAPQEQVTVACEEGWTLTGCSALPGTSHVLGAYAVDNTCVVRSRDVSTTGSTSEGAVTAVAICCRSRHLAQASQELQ
pIC50: −log10 of the molar value.
Label MET when pIC50 is at or above 5; otherwise label NOT MET.

>>> class_assignment("Ac-TVFTSWEEYLDWVGSGKLWN-NH2 [Compound 7]")
"NOT MET"
>>> class_assignment("Ac-TVFTSWEEYLDWVGGSGKLWNLGRV-NH2 [Compound 8]")
"MET"
>>> class_assignment("Ac-TVFTSWEEYLDWVGSGGKLWNLGRV-NH2 [Compound 9]")
"MET"
>>> class_assignment("Ac-TVFTSWEEYLDWVGSGKLWNLGR-NH2 [Compound 4]")
"MET"
>>> class_assignment("Ac-TVFTSWEEYLDWVGSGDLMPWNLVRIGLLR-NH2 (also called Pep2-8p7; Pep2-8_K9gvpep7) [Compound 20]")
"MET"
>>> class_assignment("Ac-TVFTSWEEYLDWVGSGKLWNLGRV-NH2 [Compound 1]")
"MET"
